Molecular target: Recombinant Csk (Homo sapiens, UniProt P41240)
Construct: GST ('glutathione-5-transferase' [sic])
Assay: Csk tyrosine kinase activity assay with poly E4Y and 32P-ATP
Conditions: NI = no inhibition
pIC50: −log10 of the molar value.
Measurement name: pIC50

For orientation, consider the following solved cases.
CCOc1ccccc1-c1sc2c(NN=Cc3cc(OC)c(O)c(OC)c3)ncnc2c1O = 6.24
CCOc1ccccc1-c1sc2c(NN=Cc3ccncc3)ncnc2c1O = 5.14
CCOc1ccccc1-c1sc2c(NN=Cc3ccc(OC)c(O)c3)ncnc2c1CO = 5.00

(A) COc1ccc(C=NNc2ncnc3c(C)c(-c4cccc(C(N)=NO)c4)sc23)cc1O
(B) CCOc1cc(F)ccc1-c1sc2c(NN=Cc3ccc(OC)c(O)c3)ncnc2c1CO
(C) COc1ccc(C=NNc2ncnc3c(C#N)c(-c4ccc(N)cc4)sc23)cc1O
(D) CCOc1ccccc1-c1sc2c(NN=Cc3ccc(O)c(OC)c3)ncnc2c1O
Q: Ordering criterion: pIC50; begin with the maximum. Note for the reader: the ranking is given by listing the labels in the order requested.
Result: D, C, A, B
(D: 5.47, C: 5.00, A: 4.57, B: 3.68)

(I) COc1ccc(C=NNc2ncnc3c(C)c(-c4ccc(N(C)C)cc4)sc23)cc1O
(II) CCOc1ccccc1-c1sc2c(NN=Cc3cccc(O)c3)ncnc2c1O
Q: # returns the entry with the larger pIC50; inputs I and II Please respond with the label that marks your chosen entry.
Result: I

----------
Biological target: Recombinant human Src (Homo sapiens, UniProt P12931)
Construct: made in house; host or cells: baculovirus-insect cell system
Sequence (P12931 whole entry): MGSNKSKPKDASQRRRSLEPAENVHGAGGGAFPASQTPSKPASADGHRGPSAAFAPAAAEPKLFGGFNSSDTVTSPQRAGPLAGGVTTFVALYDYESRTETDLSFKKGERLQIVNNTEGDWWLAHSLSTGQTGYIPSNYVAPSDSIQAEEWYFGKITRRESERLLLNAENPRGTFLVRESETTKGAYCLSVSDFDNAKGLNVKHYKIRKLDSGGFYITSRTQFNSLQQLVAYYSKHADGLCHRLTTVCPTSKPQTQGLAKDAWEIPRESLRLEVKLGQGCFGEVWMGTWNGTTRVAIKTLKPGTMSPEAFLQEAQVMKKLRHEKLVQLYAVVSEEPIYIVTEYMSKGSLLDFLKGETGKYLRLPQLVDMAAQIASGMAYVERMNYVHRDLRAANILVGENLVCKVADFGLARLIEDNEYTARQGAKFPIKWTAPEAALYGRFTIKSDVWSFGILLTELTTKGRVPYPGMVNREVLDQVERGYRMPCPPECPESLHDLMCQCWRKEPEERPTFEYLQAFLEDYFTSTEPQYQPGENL
Assay: Src tyrosine kinase activity assay with poly E4Y and 32P-ATP
Assay type: biochemical
Conditions: poly E4Y, 32P-ATP; NI = no inhibition; read-out: IC50 Value Src
pIC50: −log10 of the molar value.
Measurement name: pIC50

(1) CCOc1ccccc1-c1sc2c(NN=Cc3ccc(OC)c(O)c3)ncnc2c1OCCN1CCOCC1
(2) CCOc1cc(F)ccc1-c1sc2c(NN=Cc3cccs3)ncnc2c1CO
Q: // max by pIC50 over [ 1 , 2 ] Please indicate the selected item by its label.
Result: 2
(2: 7.26, 1: 6.47)

----------
Biological target: Recombinant human Src (Homo sapiens, UniProt P12931)
Construct: made in house; host or cells: baculovirus-insect cell system
Test: Src tyrosine kinase activity assay with poly E4Y and 32P-ATP
Format: biochemical
Settings: poly E4Y, 32P-ATP; NI = no inhibition; read-out: IC50 Value Src
Measurement name: IC50 (nM)

Solved entries:
COc1ccc(C=NNc2ncnc3c(C)c(CNc4ccccc4)sc23)cc1O [Compound 18] = 550
CCOc1ccccc1-c1sc2c(NN=Cc3c[nH]c(=O)[nH]c3=O)ncnc2c1O [Compound 113] = 28
Cc1c(CN2CCOCC2)sc2c(NN=Cc3cccnc3)ncnc12 [Compound 15] = 320
CCOc1ccccc1-c1sc2c(NN=Cc3cc(OC)c(O)c(OC)c3)ncnc2c1O [Compound 96] = 0.73
CCOc1ccccc1-c1sc2c(NN=Cc3cccc(F)c3)ncnc2c1C#N [Compound 139] = 4.7

(a) COc1ccc(C=NNc2ncnc3c(C)c(-c4ccccc4C#N)sc23)cc1O [Compound 31]
(b) CCOc1cc(F)ccc1-c1sc2c(NN=Cc3ccc(OC)c(O)c3)ncnc2c1CO [Compound 60]
(c) CCOc1ccccc1-c1sc2c(NN=Cc3ccc(OCCN4CCOCC4)c(OC)c3)ncnc2c1C [Compound 54]
(d) Cc1c(-c2cccc(C#N)c2)sc2c(NN=Cc3cccs3)ncnc12 [Compound 28]
Q: Ordering criterion: IC50; begin with the maximum. Labels, ranked as asked.
Result: d, a, b, c
(d: 1400 nM, a: 74 nM, b: 36 nM, c: 1.4 nM)
